- Measured target: purified human HDAC6 (Homo sapiens, UniProt Q9UBN7)
- Construct: purchased BPS Bioscience 5006
- Assay details: HDAC6 Enzyme Assay
- Format: biochemical
- Applied conditions: purified human HDAC6, substrate Ac-Arg-Gly-Lys(Ac)-AMC, 1 hour at 30° C.; reported as bins
Overview of recorded IC50 for various compounds

// known answers, use as guide
[[record]]
compound = "CCC[C@@H](NC(=O)c1cc2ccccc2s1)c1ccc(C(=O)NO)cc1"
experimental_value = "< 100 nM"

[[record]]
compound = "CC(C)C(NC(=O)c1ccc(F)cc1)c1ccc(C(=O)NO)cc1 (centres unmarked)"
experimental_value = "100 to 500 nM"


Exercise: Which IC50 value belongs to CC(NC(=O)c1ccc2c(c1)OCO2)c1ccc(C(=O)NO)cc1 (centres unmarked) ?
Solution: < 100 nM

Exercise: Which IC50 value belongs to C[C@@H](NC(=O)N[C@H](C)c1ccc(C(=O)NO)cc1)c1ccccc1 ?
Solution: 100 to 500 nM

###

- Measured target: purified human HDAC6 (Homo sapiens, UniProt Q9UBN7)
- Construct: purchased BPS Bioscience 5006
- Sequence (Q9UBN7 1-1215): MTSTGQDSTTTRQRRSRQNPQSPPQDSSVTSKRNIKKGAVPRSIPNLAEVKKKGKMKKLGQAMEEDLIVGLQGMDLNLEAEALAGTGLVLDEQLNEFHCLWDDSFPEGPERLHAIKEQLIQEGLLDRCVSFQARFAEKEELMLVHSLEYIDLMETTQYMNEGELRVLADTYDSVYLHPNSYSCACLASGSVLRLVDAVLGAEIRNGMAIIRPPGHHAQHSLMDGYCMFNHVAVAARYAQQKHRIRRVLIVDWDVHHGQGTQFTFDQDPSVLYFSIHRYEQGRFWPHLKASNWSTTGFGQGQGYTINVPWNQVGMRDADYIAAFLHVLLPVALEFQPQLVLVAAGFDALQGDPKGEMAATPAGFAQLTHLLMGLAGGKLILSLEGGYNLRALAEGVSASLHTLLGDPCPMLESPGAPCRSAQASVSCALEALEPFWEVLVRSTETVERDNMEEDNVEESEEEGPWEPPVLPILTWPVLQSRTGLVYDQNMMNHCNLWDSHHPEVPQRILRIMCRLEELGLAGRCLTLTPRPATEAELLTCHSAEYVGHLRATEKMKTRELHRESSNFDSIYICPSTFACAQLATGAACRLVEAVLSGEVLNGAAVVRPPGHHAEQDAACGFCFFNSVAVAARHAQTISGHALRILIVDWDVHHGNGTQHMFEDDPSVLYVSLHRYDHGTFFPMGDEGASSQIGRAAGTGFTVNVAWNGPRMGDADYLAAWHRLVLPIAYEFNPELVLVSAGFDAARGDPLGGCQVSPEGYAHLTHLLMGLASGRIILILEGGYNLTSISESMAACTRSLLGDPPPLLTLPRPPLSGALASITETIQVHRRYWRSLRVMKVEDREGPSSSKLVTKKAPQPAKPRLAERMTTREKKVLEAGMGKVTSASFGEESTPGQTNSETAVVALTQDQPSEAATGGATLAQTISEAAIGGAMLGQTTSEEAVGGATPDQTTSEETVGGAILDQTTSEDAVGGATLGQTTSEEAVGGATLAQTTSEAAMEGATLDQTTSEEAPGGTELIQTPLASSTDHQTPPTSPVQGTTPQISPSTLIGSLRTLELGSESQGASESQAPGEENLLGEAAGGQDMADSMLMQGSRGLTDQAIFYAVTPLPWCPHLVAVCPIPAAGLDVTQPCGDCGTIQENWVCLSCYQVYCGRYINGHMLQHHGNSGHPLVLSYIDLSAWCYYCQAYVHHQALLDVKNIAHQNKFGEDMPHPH
- Assay details: HDAC6 Enzyme Assay
- Type: biochemical
- Applied conditions: purified human HDAC6, substrate Ac-Arg-Gly-Lys(Ac)-AMC, 1 hour at 30° C.; reported as bins
Quantity name: IC50

// known answers, use as guide
[[record]]
molecule = "CC(C)[C@@H](NC(=O)Nc1ccc2c(c1)CCO2)c1ccc(C(=O)NO)cc1"
quantity_name = "IC50"
experimental_value = "< 100 nM"

[[record]]
molecule = "CC(NC(=O)C1CC=CCC1)c1ccc(C(=O)NO)cc1 (stereo not drawn)"
quantity_name = "IC50"
experimental_value = "< 100 nM"

[[record]]
molecule = "CC(C)[C@@H](NC(=O)NCCc1ccccc1)c1ccc(C(=O)NO)cc1"
quantity_name = "IC50"
experimental_value = "< 100 nM"


Exercise: Any idea what IC50 came out for COc1cccc(C(=O)NC(C)c2ccc(C(=O)NO)cc2)c1 (stereo not drawn) on purified human HDAC6 (Homo sapiens, UniProt Q9UBN7)?
Solution: < 100 nM

Exercise: Any idea what IC50 came out for CC(C)C(NC(=O)c1cnccn1)c1ccc(C(=O)NO)cc1 (stereo not drawn) on purified human HDAC6 (Homo sapiens, UniProt Q9UBN7)?
Solution: 100 to 500 nM

Exercise: Any idea what IC50 came out for CC(C)[C@@H](NC(=O)c1cc2ccccc2n1C)c1ccc(C(=O)NO)cc1 on purified human HDAC6 (Homo sapiens, UniProt Q9UBN7)?
Solution: < 100 nM

###

- Measured target: purified human HDAC6 (Homo sapiens, UniProt Q9UBN7)
- Construct: purchased BPS Bioscience 5006
- Assay details: HDAC6 Enzyme Assay
- Type: biochemical
- Applied conditions: purified human HDAC6, substrate Ac-Arg-Gly-Lys(Ac)-AMC, 1 hour at 30° C.; reported as bins
pIC50: −log10 of the molar value.
Overview of recorded pIC50 for various molecules

[[record]]
molecule = "CC(C)[C@@H](NC(=O)N[C@H](C)c1ccccc1)c1ccc(C(=O)NO)cc1"
quantity_name = "pIC50"
experimental_value = "> 7.00"

[[record]]
molecule = "Cc1ccc(CNC(=O)NC(C)c2ccc(C(=O)NO)cc2)cc1 (stereo not drawn)"
quantity_name = "pIC50"
experimental_value = "6.30 to 7.00"


Exercise: Any idea what pIC50 came out for COc1ccc(C(=O)NC(c2ccc(C(=O)NO)cc2)C(C)C)cc1 (stereo not drawn) on purified human HDAC6 (Homo sapiens, UniProt Q9UBN7)?
Solution: > 7.00

###

- Measured target: purified human HDAC6 (Homo sapiens)
- Construct: purchased BPS Bioscience 5006
- Assay details: HDAC6 Enzyme Assay
- Type: biochemical
- Applied conditions: purified human HDAC6, substrate Ac-Arg-Gly-Lys(Ac)-AMC, 1 hour at 30° C.; reported as bins
- Experimental: To measure the inhibition of HDAC6 activity, purified human HDAC6 (BPS Bioscience; Cat. No. 5006) is incubated with substrate Ac-Arg-Gly-Lys(Ac)-AMC peptide (Bachem Biosciences; Cat. No. 1-1925) for 1 hour at 30° C. in the presence of test compounds or vehicle DMSO control. […] Concentration response curves are generated by calculating the fluorescence increase in test compound-treated samples relative to DMSO-treated controls, and enzyme inhibition (IC50) values are determined from those curves.
pIC50: −log10 of the molar value.
Quantity name: pIC50

// known answers, use as guide
[[record]]
compound = "C[C@@H](NC(=O)c1cc2oc(-c3ccccc3)cc2n1C)c1ccc(C(=O)NO)cc1 [Compound I-5]"
quantity_name = "pIC50"
experimental_value = "> 7.00"

[[record]]
compound = "C[C@H](NC(=O)c1cc2ccccc2s1)c1ccc(C(=O)NO)cc1 [Compound I-53]"
quantity_name = "pIC50"
experimental_value = "> 7.00"


Exercise: Which pIC50 value belongs to CC(=O)Nc1cc(NC(C)=O)cc(C(=O)NC(c2ccc(C(=O)NO)cc2)C(C)C)c1 (stereo not shown) [Compound I-282] ?
Solution: > 7.00

Exercise: Which pIC50 value belongs to CC(NC(=O)c1cc2ccccc2[nH]1)c1cccc(C(=O)NO)c1 (stereo not shown) [Compound I-227] ?
Solution: 6.30 to 7.00

###

Overview of recorded IC50 for various molecules
- Measured target: purified human HDAC6 (Homo sapiens, UniProt Q9UBN7)
- Construct: purchased BPS Bioscience 5006
- Assay details: HDAC6 Enzyme Assay
- Format: biochemical
- Applied conditions: purified human HDAC6, substrate Ac-Arg-Gly-Lys(Ac)-AMC, 1 hour at 30° C.; reported as bins
- Protocol: To measure the inhibition of HDAC6 activity, purified human HDAC6 (BPS Bioscience; Cat. No. 5006) is incubated with substrate Ac-Arg-Gly-Lys(Ac)-AMC peptide (Bachem Biosciences; Cat. No. 1-1925) for 1 hour at 30° C. in the presence of test compounds or vehicle DMSO control. […] Concentration response curves are generated by calculating the fluorescence increase in test compound-treated samples relative to DMSO-treated controls, and enzyme inhibition (IC50) values are determined from those curves.

// known answers, use as guide
[[record]]
molecule = "COc1ccc(S(=O)(=O)NC(C)c2ccc(C(=O)NO)cc2)cc1 (centres unmarked) [Compound I-47]"
quantity_name = "IC50"
experimental_value = "0.1 to 0.5 µM"

[[record]]
molecule = "CC(C)(C)C(NC(=O)c1c[nH]c2ccccc12)c1ccc(C(=O)NO)cc1 (centres unmarked) [Compound I-319]"
quantity_name = "IC50"
experimental_value = "< 0.1 µM"

[[record]]
molecule = "CC(NC(=O)c1cc2cc(Cl)ccc2o1)c1cccc(C(=O)NO)c1 (centres unmarked) [Compound I-226]"
quantity_name = "IC50"
experimental_value = "0.1 to 0.5 µM"

[[record]]
molecule = "Cc1c(C(=O)NC(c2ccc(C(=O)NO)cc2)C(C)(C)C)cnn1-c1ccccc1 (centres unmarked) [Compound I-182]"
quantity_name = "IC50"
experimental_value = "0.1 to 0.5 µM"

[[record]]
molecule = "CC(C)C(NC(=O)c1cc2cc(Cl)ccc2[nH]1)c1ccc(C(=O)NO)cc1 (centres unmarked) [Compound I-247]"
quantity_name = "IC50"
experimental_value = "< 0.1 µM"

[[record]]
molecule = "CCC[C@@H](NC(=O)c1ccc(OC)cc1)c1ccc(C(=O)NO)cc1 [Compound I-146]"
quantity_name = "IC50"
experimental_value = "< 0.1 µM"

[[record]]
molecule = "CC(C)[C@@H](NC(=O)Nc1cccc2ccccc12)c1ccc(C(=O)NO)cc1 [Compound I-524]"
quantity_name = "IC50"
experimental_value = "< 0.1 µM"


Could you now consider this next molecule?
Exercise: Which IC50 value belongs to CC(NC(=O)Nc1c(F)cccc1F)c1ccc(C(=O)NO)cc1 (centres unmarked) [Compound I-261] ?
Solution: < 0.1 µM
